Reference for the values: patent US10307413B2

# reported pIC50; entries follow
target system: PRMT5/MEP50 (Homo sapiens (Human), UniProt O14744)
Sequence (O14744 other isoform, or with tags, fused parts or gaps): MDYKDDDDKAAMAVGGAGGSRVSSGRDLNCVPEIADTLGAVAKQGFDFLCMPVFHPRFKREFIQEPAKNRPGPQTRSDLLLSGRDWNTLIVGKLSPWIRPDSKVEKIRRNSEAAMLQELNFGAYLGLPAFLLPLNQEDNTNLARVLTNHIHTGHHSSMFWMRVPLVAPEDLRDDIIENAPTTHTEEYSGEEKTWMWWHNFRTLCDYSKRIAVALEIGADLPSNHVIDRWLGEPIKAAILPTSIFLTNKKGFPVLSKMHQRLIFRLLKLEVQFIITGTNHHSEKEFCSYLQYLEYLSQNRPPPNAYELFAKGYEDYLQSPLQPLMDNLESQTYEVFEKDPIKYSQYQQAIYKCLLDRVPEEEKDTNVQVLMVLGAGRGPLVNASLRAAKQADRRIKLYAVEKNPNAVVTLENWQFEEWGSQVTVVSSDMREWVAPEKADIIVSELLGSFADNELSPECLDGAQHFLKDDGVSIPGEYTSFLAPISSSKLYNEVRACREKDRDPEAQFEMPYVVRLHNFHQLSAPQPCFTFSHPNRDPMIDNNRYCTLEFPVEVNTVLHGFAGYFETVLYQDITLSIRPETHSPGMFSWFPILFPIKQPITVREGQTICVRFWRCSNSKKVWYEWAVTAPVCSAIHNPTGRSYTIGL
Sequence (Q9BQA1 other isoform, or with tags, fused parts or gaps partner): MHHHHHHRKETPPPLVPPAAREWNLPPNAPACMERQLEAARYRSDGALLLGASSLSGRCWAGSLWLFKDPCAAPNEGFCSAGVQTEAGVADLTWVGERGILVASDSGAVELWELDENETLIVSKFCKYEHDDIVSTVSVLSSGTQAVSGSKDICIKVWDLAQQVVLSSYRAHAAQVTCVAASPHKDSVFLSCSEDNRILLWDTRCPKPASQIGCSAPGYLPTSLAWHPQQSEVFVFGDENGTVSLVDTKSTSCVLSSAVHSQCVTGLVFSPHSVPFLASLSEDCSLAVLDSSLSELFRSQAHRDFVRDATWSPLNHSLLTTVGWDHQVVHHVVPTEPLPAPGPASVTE
assay remarks: PRMT5 Biochemical Assay (PRMT5/MEP50 enzyme assay on peptide substrate, 3H-SAM Flashplate)
pIC50: −log10 of the molar value.

Below, 3 compounds whose answers are already recorded.
[
  {
    "compound": "CCNCCOc1ccc(C(=O)NC[C@H](O)CN2CCc3ccccc3C2)cc1 [Compound 391]",
    "measurement name": "pIC50",
    "result": "> 7.00"
  },
  {
    "compound": "O=C(NCC(O)CN1CCc2ccccc2C1)c1cccc(C2CCCN2)c1 (stereo not shown) [Compound 42]",
    "measurement name": "pIC50",
    "result": "6.00 to 7.00"
  },
  {
    "compound": "O=C(NC[C@H](O)CN1CCc2ccccc2C1)c1ccc2cccnc2c1O [Compound 344]",
    "measurement name": "pIC50",
    "result": "6.00 to 7.00"
  }
]

Bench note: what pIC50 did Cn1ccc(Nc2cc(C(=O)NC[C@H](O)CN3CCc4ccccc4C3)ccn2)n1 [Compound 342] show?
> 7.00
